The measurements presented in this section are drawn from PubChem BioAssay.

# Experiment Summary: OD615 S. cerevisiae growth inhibition, permissive medium, pilot counter-assay, permissive growth control for S. cerevisiae lifespan shortening project (AID 705)
# Assay Context: OD615, 24 h, at 10 µM, stronger effect = higher value
Recorded growth inhibition for the following compounds
Write the number in % without appending the unit.

>>> result_number("COc1cc(OC)cc(C(=O)Nc2cc(NC(=O)c3ccco3)ccc2OC)c1")
-15.4
>>> result_number("Cc1cc(Nc2ccccc2F)n2nc(C)nc2n1")
-13
>>> result_number("CCC(=O)Nc1nnc(-c2ccco2)o1")
-3.92

Challenge: # return recorded growth inhibition for input CCOC(=O)C1=C(C)Nc2nc(C)nn2C1c1ccc(OCC)c(OC)c1 (stereo unspecified)
Response given: -8.05

Challenge: # return recorded growth inhibition for input COc1cc(S(=O)(=O)N2CCN(Cc3ccc4c(c3)OCO4)CC2)c(C)cc1C
Response given: -4.19

Challenge: # return recorded growth inhibition for input O=C1CCC(=O)N1c1ccc(CSc2nc3ccccc3[nH]2)cc1
Response given: -4.96

---

# Experiment Summary: reversal of MRP1-mediated doxorubicin resistance, pilot screen, H69AR cells, doxorubicin co-treatment (AID 601)
# Assay Context: H69AR cells + 2 uM doxorubicin, CellTiter-Glo, 72 h; at 10 µM; stronger effect = higher value
The label is YES for differential viability (reversal) below 8% and NO for differential viability (reversal) equal to or exceeding 8%.

>>> classification("CN(C(=O)C(Cl)Cl)c1ccc(OC(=O)c2ccco2)cc1")
"YES"
>>> classification("Cc1cccc(CCNC(=O)CCc2nc(-c3ccccc3F)no2)c1")
"NO"
>>> classification("COc1ccc(OC)c(C(=O)CSc2nnc(-c3ccc(OC)c(OC)c3)o2)c1")
"YES"
>>> classification("CC(=O)NS(=O)(=O)c1ccc(N)cc1")
"YES"
>>> classification("CC(=O)C1=C(O)C(=O)N(Cc2cccnc2)C1c1ccccc1 (stereo not drawn)")
"NO"

Challenge: I'd appreciate it if you could check whether CC/C(O)=C(/C#N)c1nnc2n1CCCCC2 has differential viability (reversal) smaller than 8%.
Response given: NO

---

# Experiment Summary: RAM signaling pathway blockade in yeast – S. cerevisiae, Pdr1DBD-CYC8 efflux-inhibited sensitized strain, primary screen (AID 1298);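 further: 0% = DMSO untreated cells without growth and 100% = 10 µM 1-NA-PP1 full growth; higher means more yeast growth rescued from 5-FOA killing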
# Assay Context: S. cerevisiae cbk1-as DSE1-URA3 strain, 5-FOA growth OD615, 2 d; at 50 µM; stronger effect = higher value
Readout: RAM network inhibition (%)
Write the number in % without appending the unit.

Study these solved cases before continuing.
>>> result_number("CC1CCN(C(=O)CNC(=O)Cn2ccc3ccccc3c2=O)CC1")
1.67
>>> result_number("CCN1C(=S)SC(=O)C1=C1C=C(C)N(CCO)C(C)=C1")
0.11

Read the next record carefully.
Challenge: # return recorded RAM network inhibition for input COc1ccc(OC)c(N(CC(=O)NCCSc2ccccc2)S(C)(=O)=O)c1
Response given: 4.35

---

# Experiment Summary: growth suppression of PTEN-deleted HCT116, pilot screen, cell-based, HCT116 clonal line, CellTiter-Glo (AID 824);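 further: 0% = 20 µM Hyamine control and 100% = vehicle cell control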
# Assay Context: 60 h, at 10 µM, stronger effect = lower value
Records with an inconclusive call do not appear.
Readout: viability (%)
Write the number in % without appending the unit.

Study these solved cases before continuing.
>>> result_number("Cc1ccc(-n2ncc3c(=O)[nH]c(SCC(=O)N4CCCCC4)nc32)cc1")
92.1
>>> result_number("COc1ccc(-n2c(Cc3cccn3C)nnc2SCC(=O)NC2CCCC2)cc1")
92.4
>>> result_number("COc1ccc2[nH]c(C)c(CCN3C(=O)C4CC=CCC4C3=O)c2c1 (configuration not stated)")
89.2

Challenge: # return recorded viability for input Cc1ccccc1NC(=O)CCN1CCN(Cc2ccccc2)CC1
Response given: 89.6

Challenge: # return recorded viability for input Oc1c(C(c2cccs2)N2CCN(c3ccccc3)CC2)sc2ncnn12 (configuration not stated)
Response given: 89.5

Challenge: # return recorded viability for input Cc1oc(-c2cccs2)nc1CS(=O)CC(=O)NCCCN1CC(C)CC(C)C1 (configuration not stated)
Response given: 92.4

Challenge: # return recorded viability for input Cc1nn(C)c(C)c1N=Cc1c(O)ccc2ccccc12
Response given: 92.1

---

# Experiment Summary: RAM signaling pathway blockade in yeast – S. cerevisiae, Pdr1DBD-CYC8 efflux-inhibited sensitized strain, primary screen (AID 1298);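 further: 0% = DMSO untreated cells without growth and 100% = 10 µM 1-NA-PP1 full growth; higher means more yeast growth rescued from 5-FOA killing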
# Assay Context: S. cerevisiae cbk1-as DSE1-URA3 strain, 5-FOA growth OD615, 2 d; at 50 µM; stronger effect = higher value
Readout: RAM network inhibition (%)
Write the number in % without appending the unit.

Study these solved cases before continuing.
>>> result_number("CCN(CC)P1(=O)OC(c2cc(OC)c(OC)c(OC)c2)=Nc2c1c(C)nn2-c1ccccc1 (centres undefined)")
2.4
>>> result_number("CCn1c(CCCNC(=O)c2cccs2)nc2ccccc21")
1.95
>>> result_number("CCN(CC)C(=O)c1cn(C)c(=O)c2cc(OC)c(OC)cc12")
-1.59
>>> result_number("CC1(C)Cc2c(sc3nc(SCC(=O)N4CCOCC4)nc(N)c23)CO1")
0.62
>>> result_number("COC(=O)c1ccccc1NC(=O)C1CCCN(c2nnc(-n3cccc3)s2)C1 (centres undefined)")
8.61

Challenge: # return recorded RAM network inhibition for input O=C(Nc1ccc(Cl)cc1)c1ccncc1
Response given: 6.15

Challenge: # return recorded RAM network inhibition for input CCOc1ccc(N(CC(=O)NCc2ccccc2)S(C)(=O)=O)cc1
Response given: -0.46

Challenge: # return recorded RAM network inhibition for input COc1cc(C(=O)N2CCN(c3cccc(C)c3C)CC2)cc(OC)c1OC
Response given: 10.1

Challenge: # return recorded RAM network inhibition for input CCOC(=O)N1CCN(C(=O)c2oc3ccc(S(=O)(=O)N4CCCCCC4)cc3c2C)CC1
Response given: 1.63

Challenge: # return recorded RAM network inhibition for input Cc1ccc(S(=O)(=O)N2CCC(C(=O)N[C@@H](C)C(=O)NCC3CCCO3)CC2)cc1 (some centres undefined)
Response given: -0.73

Challenge: # return recorded RAM network inhibition for input COc1ccc(C(=O)/C(C)=N/O)cc1OC
Response given: 2.98

Challenge: # return recorded RAM network inhibition for input CCS(=O)(=O)Nc1ccc(-c2ccc(NS(=O)(=O)CC)c(OC)c2)cc1OC
Response given: 6.39

Challenge: # return recorded RAM network inhibition for input Cc1ccccc1CSc1nnc(Cn2c(=O)sc3ccccc32)n1C
Response given: 6.66

Challenge: # return recorded RAM network inhibition for input CCCCCCN1C(=O)C(O)=C(C(C)=O)C1c1ccc(Cl)cc1 (centres undefined)
Response given: 8.31

---

# Experiment Summary: RAM signaling pathway blockade in yeast – S. cerevisiae, Pdr1DBD-CYC8 efflux-inhibited sensitized strain, primary screen (AID 1298);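 further: 0% = DMSO untreated cells without growth and 100% = 10 µM 1-NA-PP1 full growth; higher means more yeast growth rescued from 5-FOA killing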
# Assay Context: S. cerevisiae cbk1-as DSE1-URA3 strain, 5-FOA growth OD615, 2 d; at 50 µM; stronger effect = higher value
Recorded RAM network inhibition for the following compounds
Write the number in % without appending the unit.

>>> result_number("O=C(C1=C(O)C(=O)N(c2ncccn2)C1c1cccs1)c1ccco1 (centres undefined)")
1.69
>>> result_number("O=C1c2ccccc2C(Nc2ccc(Cl)cn2)N1c1ccccn1 (centres undefined)")
8.97

Challenge: # return recorded RAM network inhibition for input Cc1cccn2cc(-c3ccc(S(=O)(=O)N4CCOCC4)cc3)nc12
Response given: 2.29

Challenge: # return recorded RAM network inhibition for input CCN(CC)CCNC(=O)c1cc2c(=O)n(C)c3ccccc3c2n1C
Response given: 0.31

Challenge: # return recorded RAM network inhibition for input O=S(=O)(Cc1ccccc1)N1CCc2ccccc2C1
Response given: 6.16

Challenge: # return recorded RAM network inhibition for input O=C(CSc1oc(-c2ccco2)nc1S(=O)(=O)c1ccc(Cl)cc1)NCC1CCCO1 (centres undefined)
Response given: 1.57

Challenge: # return recorded RAM network inhibition for input COC(=O)C1C(=O)CC(C)(O)C(C(=O)OC)C1c1ccc2c(c1)OCO2 (centres undefined)
Response given: 0.48

Challenge: # return recorded RAM network inhibition for input CC1CN(S(=O)(=O)c2ccc(Cl)c(S(=O)(=O)N3CC(C)OC(C)C3)c2)CC(C)O1 (centres undefined)
Response given: 1.17

Challenge: # return recorded RAM network inhibition for input O=C(COC(=O)C(O)c1ccccc1)c1ccc2c(c1)OCCO2 (centres undefined)
Response given: 4.89

---

Recorded viability for the following compounds
# Experiment Summary: SK-BR-3 cell growth inhibitors, pilot screen, 24 h, human (AID 572);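 further: compound exposure lasted between 18 and 24 h rather than exactly 24 h; 100% = carrier-treated control wells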
# Assay Context: SK-BR-3 viability, CellTiter-Glo luminescence, at 10 µM, stronger effect = lower value
Write the number in % without appending the unit.

Study these solved cases before continuing.
>>> result_number("N#CC1=C(SCC(=O)c2cc3ccccc3oc2=O)NC(=O)C(C#N)C12CCCC2 (centres undefined)")
92
>>> result_number("O=C(CSc1nccn1-c1cccc(Cl)c1)NC1CCCC1")
95.5
>>> result_number("CN1C(=O)CC(C(=O)Nc2ccc(F)cc2)SC1=Nc1ccc2c(c1)OCO2 (centres undefined)")
88

Challenge: # return recorded viability for input CCSC1(SCC)N=C(N)C2(C#N)C(c3ccccc3)NC(C)=C(C)C12C#N (centres undefined)
Response given: 95
